System: HIF-2α HIS TAG-PASB Domain (Homo sapiens)
Construct: 100 nM HIF-2α HIS TAG-PASB Domain
Sequence (Q99814 240-350 limits assumed): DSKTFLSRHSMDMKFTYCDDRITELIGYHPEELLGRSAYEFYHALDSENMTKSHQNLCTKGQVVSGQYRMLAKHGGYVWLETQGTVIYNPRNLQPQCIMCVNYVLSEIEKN
Assay Info: HIF-2α Scintillation Proximity Assay (SPA)
Format: binding
Test Parameters: read-out: Scintillation Proximity Assay IC50
pIC50: −log10 of the molar value.
Quick reference for pIC50 among some compounds

Compound	System	pIC50
CS(=O)(=O)c1ccc(Oc2cncc(Br)c2)c2c1[C@H](O)C(F)(F)C2 [Compound 324]	HIF-2α HIS TAG-PASB Domain (Homo sapiens)	6.60 to 7.30

Query block: Entry O=S(=O)(c1ccc(OCCF)c2c1[C@H](O)C(F)(F)C2)C(F)(F)F [Compound 706] : reported pIC50 = ?
Result block: 6.60 to 7.30

Query block: # repeat for CC(C)Oc1ccc(S(=O)(=O)C(F)(F)F)c2c1CCC2O (centres unmarked) [Compound 592]
Result block: < 6.00

Query block: # repeat for CO[C@H]1C[C@@H](Oc2ccc(S(=O)(=O)C(F)(F)F)c3c2CC(F)(F)[C@H]3O)C1 [Compound 715]
Result block: > 7.30

Query block: # repeat for CCCOc1ccc(I)c2c1C[C@@H](F)[C@H]2O [Compound 683]
Result block: < 6.00

Query block: # repeat for N#CN=S1(=O)CC(O)c2c1ccc(Oc1cc(F)cc(F)c1)c2C(F)F (centres unmarked) [Compound 394]
Result block: < 6.00

Query block: # repeat for CS(=O)(=O)c1ccc(O[C@H]2C[C@@H](C#N)C2)c2c1[C@H](O)C(F)(F)[C@@H]2F [Compound 761]
Result block: > 7.30

Query block: # repeat for CCCc1ccc(S(=O)(=O)C(F)(F)F)c2c1CC(F)(F)C2O (centres unmarked) [Compound 517]
Result block: 6.60 to 7.30

Query block: # repeat for N#Cc1cc(F)cc(Oc2ccc(S(=O)(=O)C(F)(F)F)cc2C#N)c1 [Compound 120]
Result block: 6.00 to 6.60

Query block: # repeat for O=S(=O)(c1ccc(NC2CCOCC2)c2c1[C@H](O)CC2)C(F)F [Compound 494]
Result block: < 6.00

Query block: # repeat for CS(=O)(=O)c1cc(F)c(Oc2cc(F)cc(C#N)c2)c2c1C(O)C(F)(F)C2 (centres unmarked) [Compound 219]
Result block: < 6.00

* * *

System: HIF-2α HIS TAG-PASB Domain (Homo sapiens)
Construct: 100 nM HIF-2α HIS TAG-PASB Domain
Assay Info: HIF-2α Scintillation Proximity Assay (SPA)
Assay type: binding
Test Parameters: read-out: Scintillation Proximity Assay IC50
pIC50: −log10 of the molar value.
Outcome Measure: pIC50

Below: 5 compounds and their reported pIC50.
Compound	pIC50
N#Cc1c(Oc2cc(F)cc(F)c2)ccc2c1C(O)(C(F)(F)F)CS2(=O)=O (stereo not drawn)	< 6.00
CS(=O)(=O)c1ccc(O[C@H]2C[C@H](F)C2)c2c1[C@H](O)C(F)(F)[C@@H]2F	> 7.30
COC1Cc2c(OCC(F)F)ccc(C(F)(F)F)c2C1O (stereo not drawn)	< 6.00
N#Cc1cc(F)cc(Oc2ccc(S(=O)(=O)C(F)(F)F)c(C#N)c2Br)c1	6.60 to 7.30
N#Cc1c(Oc2cc(F)cc(Cl)c2)ccc(S(=O)(=O)C(F)(F)F)c1Cl	< 6.00

Query block: Entry CC1CC(Oc2ccc(S(=O)(=O)C(F)(F)F)c3c2CC(F)(F)C3O)CCO1 (stereo not drawn) : reported pIC50 = ?
Result block: > 7.30
